Biological target: GLP-1 receptor (human, UniProt P43220 24-463)
Assay: cell-based or functional assay
Starred links: 1 amine or outer side, 2 acyl side, 3 side chain; linkers in the order of their positions; H or OH if unused. Non-standard residues stand in square brackets, D forms with d. Groups on a side chain read outwards from the residue. Primed or numbered codes have the meaning given here. No end group written: not given here. *: point of attachment. γGlu = O=C(O)[C@H](CCC(=O)[*:2])N[*:1]; Stearoyl = CCCCCCCCCCCCCCCCCC(=O)*; αMeF = C[C@](N)(Cc1ccccc1)C(=O)O; αMeK = C[C@](N)(CCCCN)C(=O)O; αMeS = C[C@](N)(CO)C(=O)O; PEG2′ = not defined here; Aib = CC(C)(N)C(=O)O
Metric: Primary assay EC50 (cAMP), n1 (nM)

[
  {
    "Binder": "H[Aib]EGSFTSDV[αMeS]S[αMeF]LEGEAAK([PEG2′-PEG2′-γGlu-Stearoyl])E[αMeF]IA[αMeF]VV[αMeK]GG-NH2 [SEQ ID NO 45]",
    "Metric": "Primary assay EC50 (cAMP), n1",
    "Value units": "nM",
    "Measured result": 3.8
  },
  {
    "Binder": "H[Aib]EGS[αMeF]TSDVSS[αMeF]LEGEAAKE[αMeF]IA[αMeF]VVKGGK([PEG2′-PEG2′-γGlu-Stearoyl])-NH2 [SEQ ID NO 38]",
    "Metric": "Primary assay EC50 (cAMP), n1",
    "Value units": "nM",
    "Measured result": 0.062
  },
  {
    "Binder": "H[Aib]EGS[αMeF]TSDV[αMeS]S[αMeF]LEGEAAKEFIK([PEG2′-PEG2′-γGlu-Stearoyl])WVVEGG-NH2 [SEQ ID NO 65]",
    "Metric": "Primary assay EC50 (cAMP), n1",
    "Value units": "nM",
    "Measured result": 0.0197
  }
]

1: H[Aib]EGS[αMeF]TSDV[αMeS]S[αMeF]LEGEAA[αMeK]EFIK([PEG2′-PEG2′-γGlu-Stearoyl])WVVEGG-NH2 [SEQ ID NO 68]
2: H[Aib]EGS[αMeF]TSDVSK([PEG2′-PEG2′-PEG2′-Stearoyl])YLEGEAAKE[αMeF]IA[αMeF]VVEGG-NH2 [SEQ ID NO 61]
Which record would sort first by descending Primary assay EC50 (cAMP), n1, 1 or 2 ? In your reply, give the label of the chosen option.
1

Ref: patent US20200079833A1
